Values compiled from paper PMC5540273.

Listed here are compounds together with their documented %Inh.
Test system: CAMK1D
Conditions: concentration: 1 μM, replicates: in singlicate; n = 1;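 note: KINOMEscan kinase panel screen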

{"columns": ["COMPOUND", "%Inh"],
 "data": [
  ["O=C(Nc1n[nH]c2nc(-c3ccco3)c(Br)cc12)C1CCN(Cc2ccccc2)C1.O=C(O)[C@H](O)[C@@H](O)C(=O)O (stereo not drawn)", "22%"],
  ["Cn1cncc1-c1cc2c(Nc3ccc(OCc4ccccc4)cc3)ncnc2cn1", "14%"],
  ["Cc1nccc(-c2c(-c3ccc(F)cc3)ncn2CCCN2CCOCC2)n1.Cl", "0%"],
  ["Cc1cnc(N)c(/C=C/c2cncc(C(=O)NCCc3ccc(Cl)cc3Cl)c2)c1.Cl", "10%"],
  ["CC(=O)c1c(C)c2cnc(Nc3ccc(N4CCNCC4)cn3)nc2n(C2CCCC2)c1=O", "2%"],
  ["COc1cccc(CNC(=O)NC2CCN(c3ccnc(Nc4ccc(F)cc4)n3)C2)c1 (stereo not drawn)", "14%"],
  ["c1ccc(-c2ccnc3[nH]ccc23)cc1", "9%"],
  ["Cc1ccc(NC(=O)Nc2ccc(Cl)c(C(F)(F)F)c2)cc1-c1ccc(C(=O)Nc2ccncc2)cc1", "15%"],
  ["CN1c2ccc(-c3ccc(C(N)=O)cc3)cc2-c2[nH]ncc2S1(=O)=O", "10%"],
  ["COC(=O)c1cccc(NC(=O)NC2CCN(c3ccnc(Nc4ccc(F)cc4)n3)C2)c1 (stereo not drawn)", "0%"],
  ["COc1ccc(Nc2nccc(N3CCC(NC(=O)C(C)c4ccc(Cl)cc4)CC3)n2)cc1 (stereo not drawn)", "23%"],
  ["CNc1nc(-c2ccc3c(N)n[nH]c3c2)cc(N2C[C@@H](C(=O)NC3CCCCC3)OC[C@H]2C)n1", "20%"],
  ["CS(=O)(=O)CCNCc1nc(-c2ccc3ncnc(Nc4ccc(OCc5ccccc5)c(Cl)c4)c3c2)cs1.Cl", "3%"],
  ["COc1cc2ncnc(Nc3cccc(Br)c3)c2cc1OC.Cl", "18%"],
  ["CC(=O)c1c(C)c2cnc(Nc3ccn(C)n3)nc2n(C2CCCC2)c1=O", "0%"],
  ["FC(F)(F)c1ccccc1-c1cc(-c2c[nH]nc2-c2ccccn2)ccn1", "12%"],
  ["Cc1ccccc1-c1cc(-c2c[nH]nc2-c2ccccn2)ccn1", "16%"],
  ["COc1ccc(CSc2nnc(-c3ccc4ncsc4c3)o2)cc1C(F)(F)F", "23%"]
]}

----------
System: CDKL5
Details: concentration: 1 μM, replicates: in singlicate; n = 1
MEASURED_PARAMETER: %Inh (%)

{"columns": ["MOLECULE", "TEST_TARGET", "MEASURED_PARAMETER", "UNIT_OF_MEASUREMENT", "VAL"],
 "data": [
  ["CC(=O)c1c(C)c2cnc(Nc3ccc(N4CCNCC4)cn3)nc2n(C2CCCC2)c1=O", "CDKL5", "%Inh", "%", 0],
  ["CNc1nc(-c2ccc3c(N)n[nH]c3c2)cc(N2C[C@@H](C(=O)Nc3ccccc3)CC[C@H]2C)n1", "CDKL5", "%Inh", "%", 1],
  ["COC(=O)C(NC(=O)NC1CCN(c2ccnc(Nc3ccc(F)cc3)n2)C1)c1ccccc1 (stereo not shown)", "CDKL5", "%Inh", "%", 3],
  ["CN1c2ccc(-c3ccc(C(N)=O)cc3)cc2-c2[nH]ncc2S1(=O)=O", "CDKL5", "%Inh", "%", 0]
]}

----------
Tested on: FGR
Details: concentration: 1 μM, replicates: in singlicate; n = 1
Where %Inh equals or exceeds 20%, the correct label is class 1; where it does not, the label is class 0.

{"columns": ["COMPOUND", "QUALITATIVE_LABEL"],
 "data": [
  ["Nc1nccc(-c2c(-c3ccc(F)cc3)ncn2C2CCN(Cc3ccccc3)CC2)n1", "class 0"],
  ["COc1ccc2cc(-c3nc(-c4ccccc4C(C)C)[nH]c3-c3ccncc3)ccc2c1", "class 1"],
  ["COc1cccc(NC(=O)Nc2ccc(C)c(-c3ccc(C(=O)Nc4ccncc4)cc3)c2)c1", "class 1"],
  ["Cc1cccc2c(-c3ccncn3)c(-c3ccc(F)cc3)nn12", "class 0"],
  ["CS(=O)(=O)CCNCc1nc(-c2ccc3ncnc(Nc4ccc(OCc5ccccc5)c(Cl)c4)c3c2)cs1.Cl", "class 0"],
  ["COC(=O)C(NC(=O)NC1CCN(c2ccnc(Nc3ccc(F)cc3)n2)C1)c1ccccc1 (stereo not shown)", "class 0"]
]}

----------
Test system: DAPK3
Conditions: concentration: 1 μM, replicates: in singlicate; n = 1
Listed here are molecules together with their documented %Inh.

{"columns": ["MOLECULE", "%Inh, %"],
 "data": [
  ["CNCc1ccc2nc(NC(=O)c3ccc(C(C)(C)C)cc3)cn2c1", 1],
  ["CCc1ccc(-c2ccc3c(c2)-c2n[nH]cc2S(=O)(=O)N3C)cc1", 0],
  ["Cn1cnc2c(N)ncnc21 [SKF-97623]", 0],
  ["FC(F)(F)c1ccccc1-c1cc(-c2c[nH]nc2-c2ccccn2)ccn1 [GW679396]", 23],
  ["COc1cccc(NC(=O)Nc2ccc(C)c(-c3ccc(C(=O)Nc4ccncc4)cc3)c2)c1 [GSK1398474]", 0],
  ["Cc1c(Cn2c3ccccc3n3c(=O)cc(N4CCOCC4)nc23)cccc1C(F)(F)F [GSK2306394]", 0],
  ["COc1ccc2cc(-c3nc(-c4ccccc4C(C)C)[nH]c3-c3ccncc3)ccc2c1 [SB-660566]", 8],
  ["CCn1c(-c2c(N)noc2C)nc2cnccc21 [SB-737856]", 0],
  ["COc1ccc(Nc2nccc(N3CCC(NC(=O)c4cc5ccccc5s4)C3)n2)cc1 (stereo not drawn) [GSK1379738]", 25]
]}

----------
Tested on: MLK2
Details: concentration: 1 μM, replicates: in singlicate; n = 1
Listed here are molecules together with their documented %Inh.
MEASURED_PARAMETER: %Inh (%)

{"columns": ["MOLECULE", "VAL"],
 "data": [
  ["COc1ccc(CSc2nnc(-c3ccc4nccn4c3)o2)cc1C(F)(F)F", 4],
  ["Nc1nccc(-c2c(-c3ccc(F)cc3)ncn2C2CCN(Cc3ccccc3)CC2)n1 [SB-219980]", 8],
  ["COC(=O)c1cccc(NC(=O)NC2CCN(c3ccnc(Nc4ccc(OC)cc4)n3)C2)c1 (stereo not drawn) [GSK1379746]", 0]
]}

----------
Test system: MAP3K15
Settings: concentration: 1 μM, replicates: in singlicate; n = 1
Listed here are compounds together with their documented %Inh.

{"columns": ["COMPOUND", "%Inh"],
 "data": [
  ["Nc1cccc(-c2ccc3c(N)n[nH]c3c2)n1 [GSK2192730]", "0%"],
  ["Cn1cncc1C(=O)NC1CCN(c2ccnc(Nc3ccc(F)cc3)n2)C1 (stereo not drawn) [GSK1379717]", "0%"],
  ["NS(=O)(=O)c1cccc(N/C=C2\\C(=O)Nc3ccc(S(=O)(=O)Cc4c(Cl)cccc4Cl)cc32)c1 [GSK398099]", "0%"],
  ["COc1nccc(-c2c(-c3ccc(F)cc3)ncn2CCCN2CCOCC2)n1 [SB-282852]", "0%"],
  ["Fc1ccc(-c2nn3cccc(F)c3c2-c2ccncc2)cc1 [GW475620]", "0%"],
  ["Cc1cccc2c(-c3ccncn3)c(-c3ccc(F)cc3)nn12 [GW515532]", "0%"],
  ["O=c1cc(N2CCOCC2)nc2n(Cc3cccc(Cl)c3Cl)c3ccccc3n12 [GSK2299009]", "3%"],
  ["Cc1ccc(-c2nc(Nc3ccncc3)c3ccccc3n2)s1 [GSK189015]", "12%"],
  ["Cc1ccc(NC(=O)Nc2ccc(Cl)cc2)cc1-c1ccc(C(=O)Nc2ccncc2)cc1 [GSK1398472]", "0%"],
  ["COc1ccc(Nc2nccc(-c3ccc(NC(=O)c4cc5cc(F)ccc5[nH]4)cc3)n2)cc1 [GSK1229496]", "0%"],
  ["CC(C)c1cc(-c2ccc3c(N)n[nH]c3c2)nc(N)n1 [GSK2250882]", "0%"],
  ["CSc1ccc(-c2nc3n(c2-c2ccncc2)CCC3)cc1 [SKF-105561]", "16%"]
]}

----------
Test system: MYO3B
Conditions: concentration: 1 μM, replicates: in singlicate; n = 1
Listed here are compounds together with their documented %Inh.
MEASURED_PARAMETER: %Inh (%)

{"columns": ["COMPOUND", "VAL"],
 "data": [
  ["CS(=O)(=O)CCNCc1nc(-c2ccc3ncnc(Nc4ccc(OCc5ccccc5)c(Cl)c4)c3c2)cs1.Cl [GW582764]", 0],
  ["O=c1cc(N2CCOCC2)nc2n(Cc3cccc(Cl)c3Cl)c3ccccc3n12 [GSK2299009]", 6],
  ["O=C(Nc1n[nH]c2nc(-c3cccs3)c(Br)cc12)C1CC1 [SB-735297]", 0],
  ["CS(=O)(=O)CCNCc1nc(-c2ccc3ncnc(Nc4ccc5c(cnn5Cc5ccccc5)c4)c3c2)cs1.Cl.Cl [GW569716]", 0],
  ["CS(=O)(=O)Cc1ccc(Nc2nccc(-c3c(-c4cccc(NC(=O)C5CCCCC5)c4)nn4ncccc34)n2)cc1 [GSK350559]", 0],
  ["O=C(Nc1n[nH]c2cc(-c3ccsc3)ccc12)C1CC1 [SB-732932]", 0],
  ["CNC(=O)c1ccc(C)c(-n2c(C)cc(OCc3ccc(F)cc3F)c(Br)c2=O)c1", 0],
  ["CNc1nc(-c2ccc3c(N)n[nH]c3c2)cc(N2C[C@@H](C(=O)Nc3ccccc3)CC[C@H]2C)n1 [GSK2298859]", 0],
  ["Fc1ccc(-c2nn3cccc(F)c3c2-c2ccncc2)cc1 [GW475620]", 7],
  ["Cc1cnc(N)c(/C=C/c2cncc(C(=O)NCCc3ccc(Cl)cc3Cl)c2)c1.Cl [GSK190937]", 0],
  ["COc1cc2ncnc(Nc3cccc(Br)c3)c2cc1OC.Cl [GI230329]", 0],
  ["COc1ccc(Nc2nccc(-c3ccc(NC(=O)c4cc5cc(F)ccc5[nH]4)cc3)n2)cc1 [GSK1229496]", 0],
  ["Fc1ccc(-c2nc3n(c2-c2ccncc2)CCS3)cc1 [GI98581]", 0],
  ["CC(C)c1ccc(O)cc1Nc1ccnc2ccc(C(F)(F)F)cc12 [GW482059]", 0],
  ["Cc1ccccc1-c1cc(-c2c[nH]nc2-c2ccccn2)ccn1 [GW680061]", 0],
  ["Nc1ncnc2occ(-c3ccc4c(c3)CCN4C(=O)Cc3cc(F)ccc3F)c12 [GSK2645446]", 0],
  ["O=C1NC(=O)C(c2ccc(Cl)cc2)=C1Nc1cccc(Cl)c1 [SB-317651]", 8],
  ["Cc1ccc(-c2nc(Nc3ccncc3)c3ccccc3n2)s1 [GSK189015]", 0]
]}
